Test system: Fibroblast
Test: Incucyte cell viability with human fibroblast; further: unitless GR value; below 1 slowed growth and below 0 cell loss
Type: toxicity, cell-based
Conditions: 12 h, 10 µM, compound concentration 10 uM, replicate number 1
Binary call on Growth Rate with cut-off 0.4: strictly below means yes (1), and equality or higher means no (0).

Please check: Growth Rate for Cc1nc(-c2ccc(C(F)(F)F)cc2)sc1C(=O)NCc1ccc(OC(C)(C)C(=O)O)cc1 [GW590735] , strictly under 0.4 or not?
no (0)

Hello, is Growth Rate of the following compound strictly smaller than 0.4? "COc1ccc(CSc2nnc(-c3ccc4ncsc4c3)o2)cc1C(F)(F)F"
no (0)

Below 0.4 on Growth Rate? Entry FC(F)(F)c1ccc(CNc2ccc(Cc3c[nH]c4ncc(Cl)cc34)cn2)cn1 [PEXIDARTINIB]
no (0)

# check: Growth Rate < 0.4 for "CCN1C(=O)c2cc(C)ccc2N(C)c2ncccc21"
no (0)

State whether 0.4 exceeds Growth Rate recorded for "CNc1ncc2cc(-c3ccc(-c4cccc(C)n4)cc3Cl)c(=O)n(C[C@H]3OC[C@H](N)CO3)c2n1" .
yes (1)

Does this compound meet the criterion Growth Rate < 0.4? "Cc1ccc(NC(=O)c2ccc3cnccc3c2)cc1C(=O)Nc1cnc(Nc2cccc(NC3CCN(C(=O)/C=C/CN(C)C)CC3)c2)nc1"
yes (1)

In plain terms, does C=C[C@H]1C[N@@]2CC[C@H]1C[C@@H]2[C@@H](O)c1ccnc2ccc(OC)cc12 [QUINIDINE] come in under 0.4 for Growth Rate?
yes (1)

Find out if reported Growth Rate for "Cc1ccc(S(=O)(=O)O)cc1.Cn1cc(Nc2nccc(N3CC4CCC(C3)N4C(=O)[C@@H]3CC3(F)F)n2)cn1" is less than 0.4
no (0)

Please check: Growth Rate for "C[C@@H](NC(=O)Cc1ccc(C2CC2)cc1)c1ccc(OCC(F)(F)F)cn1" , strictly under 0.4 or not?
yes (1)

Quick check: Growth Rate of "CCNCCNC(=O)c1c(C)[nH]c(/C=C2\C(=O)Nc3ccc(F)cc32)c1C" under 0.4?
yes (1)

Is Growth Rate strictly under 0.4 for the entry CN1CCN(c2nc(C3=C(c4c[nH]c5ccccc45)C(=O)NC3=O)c3ccccc3n2)CC1 [SOTRASTAURIN] ?
yes (1)

Does the reported Growth Rate of CC1(C)CCC(CN2CCN(c3ccc(C(=O)NS(=O)(=O)c4ccc(NCC5CCOCC5)c([N+](=O)[O-])c4)c(Oc4cnc5[nH]ccc5c4)c3)CC2)=C(c2ccc(Cl)cc2)C1 [VENETOCLAX] stay below 0.4?
no (0)

Given "Cc1cccc(CC(=O)N2CCc3c2ccc(-c2cn(C)c4ncnc(N)c24)c3F)n1" , is recorded Growth Rate strictly lower than 0.4?
no (0)

API: query returns whether the compound falls strictly under 0.4 in Growth Rate. Query: "O=C(CNCc1cc2ccccc2[nH]1)N[C@H]1CC[C@@H](c2nc3ccccc3[nH]2)CC1"
no (0)

Does the reported Growth Rate of "COc1cc(N2CCN(C)CC2)ccc1Nc1ncc2c(n1)N(C)c1ccccc1C(=O)N2CC(F)(F)F" stay below 0.4?
no (0)

Dear reviewer, please state whether "N=C(N)NCCC[C@H](NC(=O)CC1(CC(=O)N2CCN(C(c3ccccc3)c3ccccc3)CC2)CCCC1)C(=O)NCc1ccccc1.O=C(O)C(F)(F)F.O=C(O)C(F)(F)F" has Growth Rate strictly beneath 0.4.
no (0)

Find out if reported Growth Rate for "CCN1CCN(Cc2ccc(NC(=O)c3ccc(C)c(Oc4ccnc5[nH]ccc45)c3)cc2C(F)(F)F)CC1.Cl.Cl.Cl.O" is less than 0.4
yes (1)

Please check: Growth Rate for "S=c1[nH]nc(-c2cccs2)n1-c1ccccc1" , strictly under 0.4 or not?
yes (1)

Hi there! Is Growth Rate for "Cl.Cl.NC1(c2ccc(-c3nc4ccn5c(=O)[nH]nc5c4cc3-c3ccccc3)cc2)CCC1" below 0.4, do you know?
yes (1)

Lab log: compare recorded Growth Rate with 0.4; is it strictly lower for "COc1cc2nc(C)nc(NC3(c4ccccc4)CC3)c2cc1OC" ?
no (0)

Is the reported Growth Rate for CN[C@@H](C)C(=O)N[C@H]1CN(C(=O)CC(C)C)CC[C@H]2CC[C@@H](C(=O)NC(c3ccccc3)c3ccccc3)N2C1=O [XEVINAPANT] strictly below 0.4?
no (0)

Item "Cl.Clc1cc2cc(c1)-c1cnn3ccc(nc13)NCCOCCO2" : Growth Rate beneath 0.4, strictly?
yes (1)

Find out if reported Growth Rate for "CC(C)n1nc(-c2cnc(N)c(OC(F)(F)F)c2)cc1[C@H]1[C@@H]2CN(C3COC3)C[C@@H]21" is less than 0.4
yes (1)

Identify whether the compound Cc1c(NC(=O)COc2ccc(Cl)cc2C(=O)c2cc(F)cc(C(F)(F)F)c2)ccc(C(=O)O)c1F [BI 2540] records Growth Rate below 0.4.
no (0)

Determine whether this compound shows Growth Rate lower than 0.4 (ties excluded): O=C(O)c1cc(F)c2nc(N3[C@@H]4CC[C@H]3C[C@@H](OCc3c(-c5ccccc5OC(F)(F)F)noc3C3CC3)C4)sc2c1 [TROPIFEXOR]
yes (1)

Please let me know if "COc1cc(-c2cc3ncccc3c(O[C@H](C)[C@H]3CNC(=O)C3)n2)cc(OC)c1OC.Cl" shows Growth Rate below 0.4.
no (0)

# TODO verify Growth Rate < 0.4 strictly for this compound: CC(C)(C)OC(=O)CN(Cc1ccc(Cl)cc1)Cc1ccc([N+](=O)[O-])s1 [GSK-4112]
no (0)

###

Assignment: determine reported Growth Rate for the given molecules.
Tested on: HEK-293T
Assay: Incucyte cell viability with HEK293T; further: unitless GR value; below 1 slowed growth and below 0 cell loss
Type: toxicity, cell-based
Conditions: human, 6 h, 10 µM, compound concentration 10 uM, replicate number 2
Give the value as a plain number.

I would be grateful if you could share the reported Growth Rate for CCc1ccccc1C(=O)Nc1n[nH]c2c(C)c(F)c(C3C(C#N)=C(C)N(C)C(C)=C3C#N)cc12 [BAY-3827] .
0.11

Recorded Growth Rate of "C[C@@H](Cn1c(=O)[nH]/c(=N\c2ccc(Oc3ccccn3)cc2)n(Cc2ccc(Cl)cc2)c1=O)C(=O)O" , please.
0.62

Recorded Growth Rate of CCOC(=O)N1CCC(CN(Cc2ccc(Cl)cc2)Cc2ccc([N+](=O)[O-])s2)C1 (stereo not drawn) [SR9009] , please.
0.23

Form field: reported Growth Rate of "CCc1nc(-c2cccc(C)c2)c(-c2ccncc2)s1"
0.9

Any idea what its Growth Rate is? The molecule is "COc1cc(C(=O)NC2CCN(C)CC2)ccc1Nc1ncc(C(F)(F)F)c(NCc2ccc(C)cc2N(C)S(C)(=O)=O)n1.O=CO.O=CO"
-0.51

Query (molecule): COc1ccc([C@@H]2Sc3ccccc3N(CCN(C)C)C(=O)[C@@H]2OC(C)=O)cc1.Cl [DILTIAZEM HYDROCHLORIDE] ; field requested: Growth Rate
0.11

Query: Growth Rate; subject: Cl.O=C1c2cccc3c2[C@H](CCC3)CN1[C@@H]1CN2CCC1CC2 [PALONOSETRON HYDROCHLORIDE]
-0.08

Look at this molecule and give its reported Growth Rate. CCC(=O)N[C@H]1CC[C@@H](C(=O)N(C)c2ccc(-c3nc4ccccc4o3)cc2)C1 [BI 99179]
0.11

###

Test system: HEK-293T
Experiment: Incucyte cell viability with HEK293T; further: unitless GR value; below 1 slowed growth and below 0 cell loss
Type: toxicity, cell-based
Details: human, 12 h, 10 µM, compound concentration 10 uM, replicate number 1
Observable: Growth Rate
Give a plain numeric answer without units written out.

Find the recorded Growth Rate belonging to C[C@@H](Oc1cc(-n2cnc3ccc(OC4CCN(C)CC4)cc32)sc1C(N)=O)c1ccccc1Cl [GSK-579289A] and report it.
0.7

Reported Growth Rate for C/C=C1\C(=O)CC2C3CCC4=CC(=O)CC[C@]4(C)C3CC[C@]12C (stereo partly drawn) : what is it?
0.69

Fill in the blank: the reported Growth Rate of "Cn1c2ccccc2c2c3c(c4c5ccccc5n(CCC#N)c4c21)CNC3=O" is ____.
0.69

###

Answer each item with its documented Growth Rate.
Test system: Fibroblast
Assay: Incucyte cell viability with human fibroblast; further: unitless GR value; below 1 slowed growth and below 0 cell loss
Format: toxicity, cell-based
Settings: 24 h, 10 µM, compound concentration 10 uM, replicate number 1
Would you mind answering with just the numeric figure?

What does the data say about its Growth Rate? Entry: "Cc1cc(-c2ccnc(Nc3cnn(C)c3)n2)ccc1CNC(=O)N1CC(OC(C)C)C1"
0.75

Reported Growth Rate, compound O=C1Nc2ccc(C(=O)c3ccco3)cc2C1=Cc1cc(Cl)c(O)c(Cl)c1 [GW406108X] : ____
0.7

Need Growth Rate of "CCOP(=O)(OCC)C(=Cc1cc(C(C)(C)C)c(O)c(C(C)(C)C)c1)P(=O)(OCC)OCC" , thanks.
0.61

Fill in: Growth Rate of "O=C(N[C@H](Cc1ccccc1)C(=O)O)c1cccc(OCc2cccnc2)c1.O=CO" is ___
0.88

Which value of Growth Rate has been reported for "N[C@H](C(=O)O)[C@@H]1CC(Cl)=NO1" in the records?
0.22

State the recorded Growth Rate for this entry: CCN1C(=O)C(c2cccc(C(=O)O)c2)C(=O)N(c2ccccc2)c2cc(C(F)(F)F)ccc21 (centres undefined)
0.95

Look up Growth Rate for this compound: "O=C(Nc1ccc(N2CCC(C(=O)N3CCOCC3)CC2)cc1)c1cnc(Oc2ccccc2)nc1"
0.99

What does the record list as Growth Rate for "CC(C)[C@H](C(=O)Nc1ccc(C(=O)NO)cc1)c1ccccc1" ?
0.78

Report Growth Rate for "COCCOCn1c(S(C)(=O)=O)nc2c1c(=O)n(C)c(=O)n2C" please.
0.45

What Growth Rate value was documented for this compound, Cc1nnc2n1-c1sc3c(c1C(c1ccccc1Cl)=NC2)CC(C(=O)N1CCOCC1)C3 (centres undefined) ?
0.87

Request the reported Growth Rate associated with "CC(=O)c1ccc2c(c1)/C(=C(/NC1CCN(C)CC1)c1ccc3c(c1)OCO3)C(=O)N2"
0.63

What value of measured Growth Rate is listed for "COc1ccc(-n2nc(C(F)(F)F)cc2-c2ccc(Cl)cc2)cc1" ?
0.68

Consider the compound "COCc1nc2cnc3cc(-c4c(C)noc4C)c(OC[C@H]4CCNC4)cc3c2n1[C@H](C)c1ccccc1" and give its measured Growth Rate.
0.98

Look at this compound and give its reported Growth Rate. "Fc1ccc(-c2c3cccc(C(F)(F)F)c3nn2Cc2ccc(F)cc2Cl)cc1"
-0.06
